Reference for the values: patent US6344442B2

# Lookup of reported % Inhibition of Sperm Bonding (Mouse) to the Mouse Zona Pellucida keyed by entry
- Test system: mouse zona pellucida (bonding of mouse sperm)
- test-name: Zona pellucida bonding test in mice (sperm bonding to isolated zonae)
- Type: cell-based
- assay-setup: 10 μg/ml peptide; 20 sperm bonds per zona corresponds to 100%
Hi! Could you send only the number? It should be in %, unit omitted.

Illustrative cases are given below, each with its answer.
>  <substance>
NH2-RYPRQGNVSS-COOH (H-RYPRQGNVSS-OH) [human ZPC (ZP3) peptide, residues 141-150]

>  <measured-on>
mouse zona pellucida (bonding of mouse sperm)

>  <numeric-result>
89

$$$$
>  <substance>
NH2-TRRCRTASHPVSASE-COOH (H-TRRCRTASHPVSASE-OH) [human ZPC (ZP3) peptide, residues 410-424]

>  <measured-on>
mouse zona pellucida (bonding of mouse sperm)

>  <numeric-result>
87

$$$$
>  <substance>
Ac-QRPGHIQFQS-NH2 [Ac-QRPGHIQFQS-NH2 (reverse), reference compound]

>  <measured-on>
mouse zona pellucida (bonding of mouse sperm)

>  <numeric-result>
0

$$$$
>  <substance>
NH2-SQFQIHGPRQ-COOH (H-SQFQIHGPRQ-OH)

>  <measured-on>
mouse zona pellucida (bonding of mouse sperm)

>  <numeric-result>
72

$$$$

Below: the item to evaluate.
q: For the substance NH2-SRNRRHVTEEADVT-COOH (H-SRNRRHVTEEADVT-OH) [human ZPC (ZP3) peptide, residues 348-361] , give its measured % Inhibition of Sperm Bonding (Mouse) to the Mouse Zona Pellucida value.
a: 85
